# assay.method.text: chemical genetic growth profiling, strain panel (AID 1159580);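 further: tested at 20 µM; growth read once vehicle control cultures reached saturation at 30 °C; 1 = growth at the plate median or of vehicle wells; lower values mean less growth of the strain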
# stated.conditions: S. cerevisiae deletion strains, growth OD, locus YBR009C, strain hhf1, hits give low values
About 2,000 (36%) of roughly 5,500 compounds were called active. About 18% were inconclusive and are not listed. The list shows a part of the results.
metric: normalized growth
// return a plain number; no unit text

Recorded result, O=C(O)CCC(=O)c1ccc(-c2ccccc2)cc1 , normalized growth: 0.998

Recorded result, O=c1cccc2n1C[C@H]1CNCC2C1 , normalized growth: 0.982

Recorded result, CC(=O)O[C@H]1C[C@@H](OC(C)=O)C(C)(C)C2C[C@@H](OC(C)=O)[C@]3(C)C(CC[C@@]4(C)[C@H](c5ccoc5)C(=O)[C@H]5O[C@]543)[C@]21C (some centres undefined) , normalized growth: 1

---

# assay.method.text: chemical genetic growth profiling, strain panel (AID 1159580)
# stated.conditions: S. cerevisiae deletion strains, growth OD, locus YIL125W, strain kgd1
About 2,000 (36%) of roughly 5,500 compounds were called active. Inconclusive results (about 18%) are left out. No stated cut-off is given here; in the data, active means normalized growth mostly below about 0.91 (no sharp cut-off); inconclusive means no clear call, values can overlap the other calls; inactive means mostly above about 0.92. This is one part of the list.
Respond only with the outcome that fits, drawn from active, inactive

I would be grateful if you could indicate the recorded call for O=c1cccc2n1C[C@H]1CNCC2C1 .
inactive

I would be grateful if you could indicate the recorded call for COc1cc(/C=C/C(=O)O)ccc1O .
inactive

I would be grateful if you could indicate the recorded call for COc1ccc(/C=C/C(=O)O)cc1OC .
inactive

I would be grateful if you could indicate the recorded call for CCCCC(CC)CN=C(N)NC(N)=NCCCCCCN=C(N)NC(N)=NCC(CC)CCCC (stereo not drawn) .
active

I would be grateful if you could indicate the recorded call for CC(=O)OCC(=O)[C@@]12OC(C)(C)O[C@@H]1CC1C3C[C@H](F)C4=CC(=O)C=C[C@]4(C)[C@@]3(F)[C@@H](O)C[C@@]12C (stereo partly drawn) .
inactive

I would be grateful if you could indicate the recorded call for CC1CC2C(C(O)CC3(C)C2CCC3(O)C(=O)COC(=O)CCC(=O)O)C2(C)C=CC(=O)C=C12 (stereo not drawn) .
inactive

---

# assay.method.text: chemical genetic growth profiling, strain panel (AID 1159580)
# stated.conditions: S. cerevisiae deletion strains, growth OD, locus YKL101W, strain HSL1, hits give low values
About 2,000 (36%) of roughly 5,500 compounds were called active. Not shown: some 18% with an inconclusive outcome. Some of the results follow.
metric: normalized growth
// return a plain number; no unit text

{"columns": ["molecule", "endpoint.result"],
 "data": [
  ["Cc1onc(-c2ccccc2Cl)c1-c1nc2ccccc2c(=O)o1", 0.939],
  ["COc1ccccc1C(C[N+](=O)[O-])c1c(N)n(C)c(=O)n(C)c1=O (configuration not stated)", 0.621],
  ["NC(=NC(=O)c1ccc(Cl)cc1)c1cccs1", 0.877]
]}

Recorded result, CC1(C)C/C(=N/Nc2ccc(C(F)(F)F)cc2)c2cc(C(C)(C)C)c(O)c(O)c2O1 , normalized growth: 0.204

Recorded result, CC(C)(O)C#Cc1ccc(/C=N\Nc2ccccc2)cc1 , normalized growth: 0.78

Recorded result, N#CC1=C(N)C(C#N)(C#N)C2(CCCCC2)C2CCCC=C12 (configuration not stated) , normalized growth: 0.98

Recorded result, CCCCCCCC1CCC/C1=N/OC(=O)c1cccs1 (configuration not stated) , normalized growth: 0.934

---

# assay.method.text: chemical genetic growth profiling, strain panel (AID 1159580)
# stated.conditions: S. cerevisiae deletion strains, growth OD, locus YNL197C, strain WHI3, hits give low values
Screen size: about 5,500 compounds; about 2,000 (36%) were called active. About 18% were inconclusive and are not listed. This is one part of the list.
metric: normalized growth
// return a plain number; no unit text

// worked examples, normalized growth included
{"columns": ["compound", "normalized growth"],
 "data": [
  ["COc1ccc2c(c1O)-c1cccc3c1[C@@H](C2)N(C)CC3", 1.02],
  ["CCCN1CCc2cc(O)cc3c2[C@H]1Cc1ccc(O)c(O)c1-3", 0.983]
]}

Recorded result, CN1CCc2cc(O)cc3c2[C@H]1Cc1ccc(O)c(O)c1-3 , normalized growth: 1.02

Recorded result, CC1Cc2cc3c(cc2C(c2ccc(N)cc2)=NN1)OCO3 (stereo unspecified) , normalized growth: 0.999

Recorded result, CCCN1CCOC2c3cc(O)ccc3OCC21 (stereo unspecified) , normalized growth: 0.975

Recorded result, CCCN1CCc2cccc3c2[C@H]1Cc1ccc(O)c(O)c1-3 , normalized growth: 0.985

---

# assay.method.text: chemical genetic growth profiling, strain panel (AID 1159580)
# stated.conditions: S. cerevisiae deletion strains, growth OD, locus YPR025C, strain CCL1, hits give low values
Among all 5,500 compounds or so, about 2,000 (36%) were called active. Inconclusive results (about 18%) are left out. This is one part of the list.
metric: normalized growth
// return a plain number; no unit text

Recorded result, CCCCCc1ccc(S(=O)(=O)Nc2ccc3c(c2)C(=O)OC3)cc1 , normalized growth: 0.983

Recorded result, N/C(=N/OC(=O)c1ccc(Cl)cc1)c1ccc(F)cc1F , normalized growth: 0.898

Recorded result, CSc1c(C#N)c(-c2ccc(Cl)cc2)nn1C(=O)c1ccccc1Cl , normalized growth: 0.958

Recorded result, Cc1onc(-c2ccccc2Cl)c1-c1nc2ccccc2c(=O)o1 , normalized growth: 0.975

Recorded result, CC(C)(O)C#Cc1ccc(/C=N\Nc2ccccc2)cc1 , normalized growth: 0.948

---

# assay.method.text: chemical genetic growth profiling, strain panel (AID 1159580)
# stated.conditions: S. cerevisiae deletion strains, growth OD, locus YKL085W, strain MDH1, hits give low values
Out of some 5,500 compounds screened, about 2,000 (36%) were called active. Inconclusive results (about 18%) are left out. This is one part of the list.
# key: entry, value: normalized growth
// return a plain number; no unit text

Recorded result, CC[C@]12CCCN3CCc4c(n(c5ccccc45)[C@](O)(C(=O)OC)C1)[C@@H]32 , normalized growth: 0.997

Recorded result, C=CC1=C(C)/C(=C/c2[nH]c(Cc3[nH]c(/C=C4\NC(=O)C(C)=C4C=C)c(C)c3CCC(=O)O)c(CCC(=O)O)c2C)NC1=O , normalized growth: 1.04

Recorded result, CC1=C(/C=C/C(C)=C/C=C/C(C)=C/C=C/C=C(C)/C=C/C=C(C)/C=C/C2=C(C)CCCC2(C)C)C(C)(C)CCC1 , normalized growth: 0.983

Recorded result, C[C@](N)(Cc1ccc(O)c(O)c1)C(=O)O , normalized growth: 0.983

---

# assay.method.text: chemical genetic growth profiling, strain panel (AID 1159580);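 further: tested at 20 µM; growth read once vehicle control cultures reached saturation at 30 °C; 1 = growth at the plate median or of vehicle wells; lower values mean less growth of the strain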
# stated.conditions: S. cerevisiae deletion strains, growth OD, locus YOR136W, strain idh2, hits give low values
About 2,000 (36%) of roughly 5,500 compounds were called active. Inconclusive results (about 18%) are left out. The list shows a part of the results.
# key: entry, value: normalized growth
// return a plain number; no unit text

{"columns": ["compound", "normalized growth"],
 "data": [
  ["NC(=O)c1cc[n+](CC2=C(C(=O)O)N3C(=O)C(NC(=O)C(c4ccccc4)S(=O)(=O)[O-])C3SC2)cc1 (stereo not given)", 0.998]
]}

Recorded result, COc1ccccc1-c1cc(=O)c2c(OC)cccc2o1 , normalized growth: 1

Recorded result, COc1ccccc1-c1cc(=O)c2cccc(OC)c2o1 , normalized growth: 0.992

Recorded result, CC(=O)OCC(=O)[C@@]12OC(C)(C)O[C@@H]1CC1C3C[C@H](F)C4=CC(=O)C=C[C@]4(C)[C@@]3(F)[C@@H](O)C[C@@]12C (stereo not given in full) , normalized growth: 1.01

Recorded result, c1cc2c(cc1[C@H]1OC[C@H]3[C@@H]1CO[C@H]3c1ccc3c(c1)OCO3)OCO2 , normalized growth: 0.973

---

# assay.method.text: chemical genetic growth profiling, strain panel (AID 1159580);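 further: tested at 20 µM; growth read once vehicle control cultures reached saturation at 30 °C; 1 = growth at the plate median or of vehicle wells; lower values mean less growth of the strain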
# stated.conditions: S. cerevisiae deletion strains, growth OD, locus YIL125W, strain kgd1, hits give low values
Hit rate of the full screen: of about 5,500 compounds, about 2,000 (36%) were called active. Another 18% or so got no clear call; they are omitted. This is one part of the list.
Binary call on normalized growth with cut-off 1: strictly below means 1, and equality or higher means 0.

Please check: normalized growth for CCn1cc(C(=O)O)c(=O)c2ccc(C)nc21 , strictly under 1 or not?
1

Please check: normalized growth for O=C1N=C(O)CN1/N=C\c1ccc(-c2ccc([N+](=O)[O-])cc2)o1 , strictly under 1 or not?
0

Please check: normalized growth for CC1=C(/C=C/C(C)=C/C=C/C(C)=C/C(=O)O)C(C)(C)CCC1 , strictly under 1 or not?
0

---

# assay.method.text: chemical genetic growth profiling, strain panel (AID 1159580);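 further: tested at 20 µM; growth read once vehicle control cultures reached saturation at 30 °C; 1 = growth at the plate median or of vehicle wells; lower values mean less growth of the strain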
# stated.conditions: S. cerevisiae deletion strains, growth OD, locus YLR342W, strain FKS1 (second series), hits give low values
Hit rate of the full screen: of about 5,500 compounds, about 2,000 (36%) were called active. Roughly 18% stayed inconclusive and do not appear here. The list shows a part of the results.
metric: normalized growth

// worked examples, normalized growth included
{"columns": ["compound", "metric", "endpoint.result"],
 "data": [
  ["CC(=O)OC/C=C(C)/C=C/C=C(C)/C=C/C1=C(C)CCCC1(C)C", "normalized growth", "0.986 (inactive)"],
  ["CC(=O)C1=C(O)C2C3c4c[nH]c5cccc(c45)CC3C(C)(C)N2C1=O (configuration not stated)", "normalized growth", "1.02 (inactive)"],
  ["CN(Cc1cnc2nc(N)nc(N)c2n1)c1ccc(C(=O)NC(CCC(=O)O)C(=O)O)cc1 (configuration not stated)", "normalized growth", "1.01 (inactive)"],
  ["COc1ccc(/C=C/C(=O)O)cc1OC", "normalized growth", "1.01 (inactive)"],
  ["Nc1nc2ncc(CNc3ccc(C(=O)N[C@@H](CCC(=O)O)C(=O)O)cc3)nc2c(=O)[nH]1", "normalized growth", "1.01 (inactive)"],
  ["CC1=C(/C=C/C(C)=C/C=C/C(C)=C/C=C/C=C(C)/C=C/C=C(C)/C=C/C2=C(C)CCCC2(C)C)C(C)(C)CCC1", "normalized growth", "1.01 (inactive)"]
]}

Recorded result, CC1=C(/C=C/C(C)=C/C=C/C(C)=C\C(=O)O)C(C)(C)CCC1 , normalized growth: 0.952 (inactive)

Recorded result, COc1cc(/C=C/C(=O)O)ccc1O , normalized growth: 1.02 (inactive)

Recorded result, CC1=C(/C=C/C(C)=C/C=C/C(C)=C/C(=O)O)C(C)(C)CCC1 , normalized growth: 1.02 (inactive)

Recorded result, CC1=C(/C=C/C(C)=C/C=C/C(C)=C/CO)C(C)(C)CCC1 , normalized growth: 1.1 (inactive)

Recorded result, Cc1cccc(CN2CCN(C(c3ccccc3)c3ccc(Cl)cc3)CC2)c1 (configuration not stated) , normalized growth: 0.791 (inactive)

Recorded result, Nc1nc(N)c2nc(CNc3ccc(C(=O)NC(CCC(=O)O)C(=O)O)cc3)cnc2n1 (configuration not stated) , normalized growth: 1.07 (inactive)

These measurements were taken from PubChem BioAssay AID1159580.
